measuredTarget: T1, human MCH-1R (human, UniProt Q99705 1-353)
T1 construct: also called MCH-R1
T1 sequence (Q99705 whole entry, form in doubt): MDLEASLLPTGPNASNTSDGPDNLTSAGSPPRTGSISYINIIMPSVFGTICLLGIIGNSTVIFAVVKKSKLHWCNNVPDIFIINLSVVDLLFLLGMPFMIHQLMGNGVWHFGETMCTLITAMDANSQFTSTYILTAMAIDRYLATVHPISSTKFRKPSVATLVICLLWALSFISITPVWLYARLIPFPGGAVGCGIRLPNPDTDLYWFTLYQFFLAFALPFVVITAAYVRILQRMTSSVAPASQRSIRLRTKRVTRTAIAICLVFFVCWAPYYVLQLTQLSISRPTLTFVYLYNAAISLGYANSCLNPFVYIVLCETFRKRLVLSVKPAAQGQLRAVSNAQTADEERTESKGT
methodSummary: SPA competition with [125I]-human MCH (Phe13, Tyr19) on receptor membranes
Description: For the SPA-based assay, WGA-PVT beads (NEN Life Sciences Products) were resuspended in Dulbecco's PBS with calcium and magnesium (500 mg beads in 4 ml PBS). […] Coated beads were kept on ice until use. […] Quantitation was performed by scintillation counting (TopCount device).
pIC50: −log10 of the molar value. Bridges are numbered along the chain shown (N, C = ends). [ ]: non-standard residue; d: D form. The star is where a group is joined. Pentanoyl(5-guanidino) = NC(N)=NCCCCC(=O)*
propertyLabel: pIC50

binder: Ac-RCML[dA]RVYRPC-NH2 (disulfide 2-11; SMILES CSCC[C@@H]1NC(=O)[C@@H](NC(=O)[C@H](CCCNC(=N)N)NC(C)=O)CSSC[C@@H](C(N)=O)NC(=O)[C@@H]2CCCN2C(=O)[C@H](CCCNC(=N)N)NC(=O)[C@H](Cc2ccc(O)cc2)NC(=O)[C@H](C(C)C)NC(=O)[C@H](CCCNC(=N)N)NC(=O)[C@@H](C)NC(=O)[C@H](CC(C)C)NC1=O, also called D-Ala^10) [SEQ. ID. NO. 13]
pIC50: 6.31

A = RCMLGXVYRPC (Harg^11 (homoarginine), also called Harg^11) [SEQ. ID. NO. 24]
B = [Pentanoyl(5-guanidino)]CML[dA]RVYRPC-NH2 (disulfide 2-11 (inferred); not fully specified, also called (?-NH2)-Arg^6, D-Ala^10) [SEQ. ID. NO. 34]
## Task Task for the reader: decide whether A or B has the larger pIC50. To answer, give the label that identifies your chosen option.
## Result A
